The values you see were collected from paper PMC4336329.

Could you please report measured hERG current change (%, negative = inhibition) at 10uM for the items listed next?
Target: human ether-à-go-go-related gene (hERG) potassium channel (human);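 also: peak tail current of the secondary pulse compared with the same well before compound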
Sequence (Q12809 whole entry, looked up): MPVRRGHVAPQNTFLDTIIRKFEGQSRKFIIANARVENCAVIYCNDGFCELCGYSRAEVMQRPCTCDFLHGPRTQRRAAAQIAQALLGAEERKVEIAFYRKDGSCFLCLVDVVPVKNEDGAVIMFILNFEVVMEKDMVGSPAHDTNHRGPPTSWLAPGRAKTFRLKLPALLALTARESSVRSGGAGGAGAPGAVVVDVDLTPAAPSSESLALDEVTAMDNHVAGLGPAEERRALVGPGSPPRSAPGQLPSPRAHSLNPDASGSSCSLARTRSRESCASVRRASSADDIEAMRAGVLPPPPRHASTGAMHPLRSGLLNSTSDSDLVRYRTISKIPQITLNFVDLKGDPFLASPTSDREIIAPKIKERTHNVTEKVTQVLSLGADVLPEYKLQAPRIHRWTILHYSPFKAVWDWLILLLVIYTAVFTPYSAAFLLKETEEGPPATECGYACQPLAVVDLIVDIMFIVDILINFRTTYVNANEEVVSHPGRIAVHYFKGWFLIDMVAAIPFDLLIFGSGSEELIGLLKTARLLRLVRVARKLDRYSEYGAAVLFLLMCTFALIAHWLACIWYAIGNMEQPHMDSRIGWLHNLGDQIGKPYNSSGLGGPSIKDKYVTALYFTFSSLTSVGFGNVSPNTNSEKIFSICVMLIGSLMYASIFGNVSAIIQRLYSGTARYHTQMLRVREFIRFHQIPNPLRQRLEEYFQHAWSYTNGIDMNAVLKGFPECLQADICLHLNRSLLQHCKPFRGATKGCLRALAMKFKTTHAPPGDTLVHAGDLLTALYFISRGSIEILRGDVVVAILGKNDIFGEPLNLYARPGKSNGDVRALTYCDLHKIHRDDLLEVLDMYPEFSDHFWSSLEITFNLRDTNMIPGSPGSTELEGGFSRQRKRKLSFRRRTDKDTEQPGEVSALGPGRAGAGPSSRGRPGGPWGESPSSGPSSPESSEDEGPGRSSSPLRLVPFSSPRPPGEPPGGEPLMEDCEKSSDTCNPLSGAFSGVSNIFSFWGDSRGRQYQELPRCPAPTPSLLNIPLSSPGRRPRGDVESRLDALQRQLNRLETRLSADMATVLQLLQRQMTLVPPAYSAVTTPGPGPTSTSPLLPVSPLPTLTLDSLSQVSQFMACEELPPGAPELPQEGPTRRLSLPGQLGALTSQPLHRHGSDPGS
Experiment: primary screen, population patch clamp on CHO cells stably expressing hERG; higher = less effect of the substance
Screen size: about 310,000 compounds; about 14,000 (4.5%) showed an effect of 50% or more. Effects have a minus sign here. The sample as a whole holds a higher share of strong results than the screen did.
I only need the number, in %, no unit after it.

In: Query (molecule): Cc1cc(C)nc(SCc2ccc(C(=O)N/N=C/c3cccnc3)cc2)n1 ; field requested: hERG current change (%, negative = inhibition) at 10uM
Out: -17.3

In: Query (molecule): COc1ccc(N2CCN(Cc3nc(N)nc(Nc4ccccc4OC)n3)CC2)cc1 ; field requested: hERG current change (%, negative = inhibition) at 10uM
Out: -62

In: Query (molecule): C=CCOc1ccccc1CN1CCN(CCc2ccccc2)C(CCO)C1 (stereo not shown) ; field requested: hERG current change (%, negative = inhibition) at 10uM
Out: -59.4

In: Query (molecule): Cc1cc(C)nc(SCc2ccc(C(=O)N/N=C/c3ccncc3)cc2)n1 ; field requested: hERG current change (%, negative = inhibition) at 10uM
Out: -50.5

In: Query (molecule): CNS(=O)(=O)c1ccc(OC)c(-c2nnc3c4ccccc4c(C)nn23)c1.Cl ; field requested: hERG current change (%, negative = inhibition) at 10uM
Out: 7.8

In: Query (molecule): COc1ccccc1Nc1nc(N)nc(CN2CCN(Cc3ccccc3)CC2)n1 ; field requested: hERG current change (%, negative = inhibition) at 10uM
Out: -73.2

In: Query (molecule): O=C(c1cc2sccc2n1Cc1ccccc1)N1CCN(c2nc3ccccc3s2)CC1 ; field requested: hERG current change (%, negative = inhibition) at 10uM
Out: -17

In: Query (molecule): CC(C)N(CCCNC(=O)C1CCN(C(=O)c2cc3sccc3n2C)CC1)Cc1ccccc1 ; field requested: hERG current change (%, negative = inhibition) at 10uM
Out: -23.2

In: Query (molecule): O=C(Nc1c2c(nn1-c1ccc([N+](=O)[O-])cc1)CS(=O)(=O)C2)c1ccco1 ; field requested: hERG current change (%, negative = inhibition) at 10uM
Out: -64.7

In: Query (molecule): CCCn1ncc(CN2CCN(CCc3ccccc3)C(CCO)C2)c1C (stereo not shown) ; field requested: hERG current change (%, negative = inhibition) at 10uM
Out: -46.9

In: Query (molecule): CCC(=O)N1CCC2(CC1)Oc1ccc(Cl)cc1C(=O)C21CC(c2cccnc2)=NO1 (stereo not shown) ; field requested: hERG current change (%, negative = inhibition) at 10uM
Out: -15.1

In: Query (molecule): CN(C)/C=C/C(=O)c1ccn(S(=O)(=O)c2ccccc2)c1 ; field requested: hERG current change (%, negative = inhibition) at 10uM
Out: 23.6

In: Query (molecule): CC(Oc1ccccc1)C(=O)Nc1c2c(nn1-c1ccccc1)CS(=O)(=O)C2 (stereo not shown) ; field requested: hERG current change (%, negative = inhibition) at 10uM
Out: 18.2

In: Query (molecule): COc1cccc(CN2CCN(CCCc3ccccc3)C(CCO)C2)c1O (stereo not shown) ; field requested: hERG current change (%, negative = inhibition) at 10uM
Out: -72.4

In: Query (molecule): COc1ccccc1Nc1nc(N)nc(CN2CCC(Cc3ccccc3)CC2)n1 ; field requested: hERG current change (%, negative = inhibition) at 10uM
Out: -84.5

In: Query (molecule): COc1ccc(S(=O)(=O)NCc2ccco2)cc1-c1nnc2c3ccccc3c(C)nn12 ; field requested: hERG current change (%, negative = inhibition) at 10uM
Out: -50.3

In: Query (molecule): COc1cccc(C(=O)Nc2c3c(nn2-c2ccc([N+](=O)[O-])cc2)CS(=O)(=O)C3)c1 ; field requested: hERG current change (%, negative = inhibition) at 10uM
Out: -53.8

In: Query (molecule): CSCCCNC(=O)c1ccccc1OC1CCN(S(C)(=O)=O)CC1 ; field requested: hERG current change (%, negative = inhibition) at 10uM
Out: 1.38

In: Query (molecule): Nc1nc2ccccc2n1/N=C/c1ccc([N+](=O)[O-])s1 ; field requested: hERG current change (%, negative = inhibition) at 10uM
Out: -1.38

In: Query (molecule): Cc1cc(C(=O)C(=O)N(C)C)c(C)n1-c1ccc(Cl)c(Cl)c1 ; field requested: hERG current change (%, negative = inhibition) at 10uM
Out: -28.9

In: Query (molecule): CCOc1cccc(CN2CCN(Cc3ccc(C)o3)C(CCO)C2)c1O (stereo not shown) ; field requested: hERG current change (%, negative = inhibition) at 10uM
Out: -13.1

In: Query (molecule): Cc1cc(C)nc(SCc2ccc(C(=O)N/N=C/c3ccc(C(=O)O)cc3)cc2)n1 ; field requested: hERG current change (%, negative = inhibition) at 10uM
Out: 28.6
